All figures here come from ChEMBL document CHEMBL5344444.

For each entry below, report its inhibition value.
species on record: Sus scrofa; assay: Inhibition of porcine platelets cPLA2 alpha using 1-stearoyl-2-arachidonoyl-sn-glycero-3-phosphocholine as substrate at 10 uM incubated for 60 mins by RP-HPLC -MS analysis relative to control

Some solved entries appear below for comparison.
O=C(O)CCCn1nnc(Cc2cn(Cc3ccc(Cl)cc3Cl)c3ccccc23)n1	32%
O=C(O)c1ccc(N/N=C/c2cccc3c2ccn3Cc2ccc(Cl)cc2Cl)cc1	24%
O=C(O)c1ccc(N/N=C/c2cn(Cc3ccc(Cl)cc3Cl)c3ccccc23)cc1	21%
O=C(O)CCCCn1nnc(Cc2cn(Cc3ccc(F)cc3)c3ccccc23)n1	48%
O=C(O)c1ccc(N/N=C/c2cn(Cc3ccccc3)c3ccccc23)cc1	16%
O=C(O)c1ccc(N/N=C/c2ccc3ccn(Cc4ccc(Cl)cc4Cl)c3c2)cc1	32%

Per the record, O=C(O)c1ccc2nn(CCc3cn(Cc4ccc(Cl)cc4Cl)c4ccccc34)cc2c1 has inhibition of 32%

###

test: Aqueous solubility of compound in phosphate buffered saline at pH 7.4 incubated for 10 min by RP-HPLC analysis; format: physicochemical
For each entry below, report its solubility at 10 min value.

Some solved entries appear below for comparison.
O=C(O)CCCCn1nnc(Cc2cn(Cc3ccc(Cl)cc3Cl)c3ccc(C(F)(F)F)cc23)n1	< 1 µg/mL
O=C(O)CCc1ccc2c(c1)c(CCc1ccccc1)cn2-c1ccc(Oc2ccccc2)cc1	< 1 µg/mL

// below: solubility at 10 min requested for another compound
Per the record, Cc1ccc2c(c1)c(Cc1nnn(CCCCC(=O)O)n1)cn2Cc1ccc(Cl)cc1Cl has solubility at 10 min of 15 µg/mL

###

organism: Sus scrofa; assay: Inhibition of porcine platelets cPLA2 alpha using 1-stearoyl-2-arachidonoyl-sn-glycero-3-phosphocholine as substrate at 10 uM incubated for 60 mins by RP-HPLC -MS analysis relative to control
Active and inactive are the calls of the source. The rule behind the calls is not given here.
quantity_measured: inhibition

O=C(O)c1ccc(OC(=O)c2cn(Cc3ccc(Cl)cc3Cl)c3ccccc23)cc1	45%
O=C(O)c1ccc(N/N=C/c2cn(Cc3cccc(Oc4ccccc4)c3)c3ccccc23)cc1	17%
O=C(O)CCCCn1nnc(Cc2cn(Cc3ccc(C(F)(F)F)cc3)c3ccccc23)n1	inactive
O=C(O)c1ccc(N/N=C/c2cn(Cc3ccc(Cl)c(Cl)c3)c3ccccc23)cc1	20%
O=C(O)CCCCn1nnc(Cc2cn(Cc3cccc(Cl)c3)c3ccccc23)n1	33%

// for each compound below, give its inhibition
1. O=C(O)c1ccc(N/N=C/c2cn(Cc3ccc(C(F)(F)F)cc3)c3ccccc23)cc1
2. CN(/N=C/c1cn(Cc2ccc(Cl)cc2Cl)c2ccccc12)c1ccc(C(=O)O)cc1
3. O=C(O)CCCn1nnc(CCc2cn(Cc3ccc(Cl)cc3Cl)c3ccccc23)n1

["15%", "27%", "23%"]

// for each compound below, give its inhibition
1. O=C(O)CCCCn1nnc(Cc2cn(Cc3ccccc3)c3ccccc23)n1
2. O=C(O)c1ccc(N/N=C/c2ccc3c(ccn3Cc3ccc(Cl)cc3Cl)c2)cc1

1: 41%; 2: 30%

// for each compound below, give its inhibition
1. O=C(O)c1ccc2c(c1)c(C(=O)O)cn2CCc1cn(Cc2ccc(Cl)cc2Cl)c2ccccc12
2. Cc1noc(-c2cn(CCc3cn(Cc4ccc(Cl)cc4Cl)c4ccccc34)c3ccc(C(=O)O)cc23)n1
3. O=C(O)CCCCn1nnc(-c2cn(Cc3ccc(Cl)cc3Cl)c3ccccc23)n1
4. O=C(O)c1ccc(N/N=C/c2cn(Cc3ccc(Oc4ccccc4)cc3)c3ccccc23)cc1
5. O=C(O)CCCCn1nnc(Cc2cn(Cc3c(Cl)cccc3Cl)c3ccccc23)n1
6. O=C(O)CCCn1nnc(-c2cn(Cc3ccc(Cl)cc3Cl)c3ccccc23)n1

1. 24%
2. 47%
3. 48%
4. inactive
5. 19%
6. 22%

// for each compound below, give its inhibition
1. O=C(O)CCCCn1nnc(Cc2cn(Cc3ccc(-c4ccccc4)cc3)c3ccccc23)n1
2. O=C(O)c1ccc(Cn2nnc(-c3cn(Cc4ccc(Cl)cc4Cl)c4ccccc34)n2)cc1

47%
37%

// for each compound below, give its inhibition
1. O=C(O)c1ccc2c(ccn2CCc2cn(Cc3ccc(Cl)cc3Cl)c3ccccc23)c1
2. O=C(O)c1ccc(N/N=C/c2cn(Cc3ccccc3Oc3ccccc3)c3ccccc23)cc1

["41%", "15%"]
